Exercise: state measured CC50 for each of the molecules provided.
Test system: HCC-2998
Test: NCI 60 five-dose screen HCC-2998
Format: cell-based
Details: Homo sapiens, five-dose, read-out: LC50 (the source's name) (converted)
I'd appreciate it if you wrote the number followed by its unit.

FC(F)(F)c1cc2c(Cl)ncnc2n1CCN1CCCCC1 :: 40.7 µM

Record CC50 per entry; entries follow.
1. OC1CCC(Cn2c(C(F)(F)F)cc3c(Cl)ncnc32)CC1 (centres unmarked)
2. FC(F)(F)CN1CCN(CCn2c(C(F)(F)F)cc3c(Cl)ncnc32)CC1
3. FC(F)(F)c1cc2c(Cl)ncnc2n1CCN1CCOCC1

Result ::
1: 6.17 µM; 2: 5.89 µM; 3: 15.8 µM

Query :: Form entry - test system: HCC-2998; read-out: CC50; molecule: `FC(F)(F)c1cc2c(Cl)ncnc2n1CCC1CCOCC1`
Result :: 5.62 µM
